meta.source: PubChem BioAssay (NCI)

- System: UACC-257 melanoma
- experimentalDetails: NCI-60 one-dose screen, 48 h
- cond: 10 µM unless noted
- Description: Cells are grown in 96 well plates and exposed to the test compound for 48 hours. Compounds are tested at a single concentration, which is 10^-5 M for most compounds. The reported endpoint is percent growth (GI% or GIPRCNT), where numbers from 0 - 100% represent growth inhibition, and numbers from -100% - 0 represent cell death. For example, a value of 40 represents 60% growth inhibition. A value of 0 means no net growth occurred over the course of the experiment. […]
Compounds without any hit were thinned out: in the full panel of roughly 83,000, 20% have a hit. The source made the active and inactive calls. How the source made its calls: active means growth percent below 10; inactive means the rest.
Thanks in advance; please answer with one of these: active, inactive

Some entries whose results are on file:
>>> classassignment("COc1cc2nc(Nc3cccc(F)c3)nc(Nc3cc(C)[nH]n3)c2cc1OC")
"active"
>>> classassignment("CC/C(Cc1ccccc1)=C(\\c1ccc(OCCN2CCCCCC2)cc1)c1ccc(OC(=O)NCc2ccccc2)cc1")
"inactive"
>>> classassignment("COc1ccc2[nH]cc(-c3nc(-c4cn(C)c5ccncc45)cs3)c2c1")
"inactive"

[Q] Which result was noted for this molecule in the test: O=C(CCCCCCN1CC(=O)N2[C@@H](C3CCCCC3)c3[nH]c4ccccc4c3C[C@H]2C1=O)NO
[A] inactive

[Q] Try COc1ccc(C2=Nc3c/c(=C\c4c(O)[nH]c5cc(Cl)ccc45)ccc3=N2)cc1 next.
[A] inactive

---

- System: MALME-3M melanoma
- experimentalDetails: NCI-60 one-dose screen, 48 h (100 = growth as untreated, 0 = no growth, -100 = all killed)
- cond: 10 µM unless noted
About 83,000 compounds went through this panel and 20% of them were active in at least one assay; those are over-represented in the sample as a whole.
Parameter growth: see the listing below.
State just the number; it will be interpreted in %.

>>> recordedmeasurement("C=C1C(=O)O[C@H]2[C@H]1CC/C(COC(=O)c1cc3cc(F)ccc3[nH]1)=C\\CC[C@@]1(C)O[C@@H]21")
-76.4
>>> recordedmeasurement("N=c1c2c(=N)n3c(nc2nc2n1-c1ccccc1Sc1ccccc1-2)sc1cc(Cl)ccc13")
12.7
>>> recordedmeasurement("Clc1nn2c(Cn3cnc4c(NCc5ccccc5)ncnc43)nnc2c2ccccc12")
27.8

[Q] Requested field: growth. Item: Cc1cc2oc(=O)cc(CP(=O)(O)O)c2cc1O
[A] 85.8

[Q] Try COc1ccc(C2=CN3CC=CCC3CC2=O)cc1 (stereo not given) next.
[A] 116

[Q] Try Cc1ncc(C(=O)Nc2ccc(CN3CCN(C)CC3)c(C(F)(F)F)c2)cc1C#Cc1cnc(N)c2cnccc12 next.
[A] -26.1

[Q] Try O=c1ccc2nc(C(F)(F)F)nn(-c3ccccc3)c-2c1 next.
[A] -41.7

[Q] Try CC[C@@H](c1ccc2cc(OC)ccc2c1)C(C)(C)C(=O)F next.
[A] 97.1

---

Parameter growth: see the listing below.
- Tested on: UACC-62 melanoma
- experimentalDetails: NCI-60 one-dose screen, 48 h (100 = growth as untreated, 0 = no growth, -100 = all killed)
- cond: 10 µM unless noted
About 83,000 compounds went through this panel and 20% of them were active in at least one assay; those are over-represented in the sample as a whole.
State just the number; it will be interpreted in %.

[Q] Requested field: growth. Item: CCC/C(=N\NC(N)=O)C(OC)OC
[A] 100

[Q] Try O=C(CCCCl)NNc1nccc(Nc2ccc(S(=O)(=O)Nc3ccncc3)cc2)n1 next.
[A] 102

[Q] Try CN(C)c1ccc(/C=C2/C=C(c3ccccc3)OC2=O)cc1 next.
[A] 92.6

[Q] Try CCCCCSB(SCCCCC)c1ccccc1 next.
[A] 105

[Q] Try COc1cc(OC)cc(C2C(C#N)=C(N)Oc3c2ccc2ccc(O)cc32)c1 (stereo unspecified) next.
[A] 28.9

[Q] Try C/C(=C(/c1ccc(Cl)cc1)c1ccc(OCCCN(C)C)cc1)c1ccc(Cl)cc1 next.
[A] 109
